System: MDA-MB-468 breast
Experiment: NCI tumour cell line growth inhibition, 48 h
endpoint.name: GI50

Take a look at these entries with their results.
[[record]]
molecule = "Cn1ccc(=Nc2ccc(NC(=O)c3ccc(N=c4ccn(C)c5ccc([N+](=O)[O-])cc45)cc3)cc2)cc1"
endpoint_name = "GI50"
assay_value = "7.28 µM"

[[record]]
molecule = "O=C(Nc1cnn2ccc(N3CCC[C@@H]3c3cc(F)ccc3F)nc12)N1CC[C@H](O)C1"
endpoint_name = "GI50"
assay_value = "> 100 µM"


Could you now consider this next compound?
GI50 recorded for this compound, `COc1ncc(-c2nc3c(n2C(C)C)[C@H](c2ccc(Cl)cc2)N(c2cc(Cl)cn(C)c2=O)C3=O)c(OC)n1` , is 18.2 µM
